Test system: GB4
Assay: qHTS profiling for inhibitors of Plasmodium falciparum proliferation (AID 504749); note: nearly all actives have a fitted effect of over 60% in size
Conditions: P. falciparum in erythrocytes, SYBR Green DNA, 72 h; series mostly up to 28.7 µM
Records with an inconclusive call do not appear. Calls of active or inactive are those of the source. Calls come from the whole dose curve; as a rule, active = well fitted inhibition curve with a large enough effect; inconclusive = small, poorly fitted or top-dose-only effect; inactive = flat fitted curve, though single readings scatter.
Classes used: label 1 for active, label 0 for inactive

Compound: C=CCc1cc(OC)c(O)c(C(=O)NCCO)c1
Category: label 0

Compound: Nc1ccc(S(N)(=O)=O)cc1
Category: label 0

Compound: CC(C)c1ccc2oc3nc(N)c(C(=O)O)cc3c(=O)c2c1
Category: label 0

Compound: Cn1c(NCCN(CCO)CCCc2ccc([N+](=O)[O-])cc2)cc(=O)n(C)c1=O
Category: label 0

Compound: N=C(N)c1ccc2cc(OC(=O)c3ccc(N=C(N)N)cc3)ccc2c1
Category: label 1

Compound: c1ccc2[nH]c(-c3cscn3)nc2c1
Category: label 0

Compound: Cc1c(OCC(F)(F)F)ccnc1CS(=O)c1nc2ccccc2[nH]1 (stereo not given)
Category: label 0

Compound: CC1(C)CCC(C)(C)c2cc(NC(=O)c3ccc(C(=O)O)cc3)ccc21
Category: label 0

Compound: CS(=O)(=O)OCCCCOS(C)(=O)=O
Category: label 0

Compound: Cc1cc(C2CCCCC2)n(O)c(=O)c1
Category: label 1

Compound: CN1C(C(=O)Nc2ccccn2)=C(O)c2sccc2S1(=O)=O
Category: label 0

Compound: Nc1cccc2c1CN(C1CCC(=O)NC1=O)C2=O (stereo not given)
Category: label 0

Compound: O=P(O)(O)C(O)(Cn1ccnc1)P(=O)(O)O
Category: label 0

Compound: O=C(O)c1cc(=O)c2c(OCC(O)COc3cccc4oc(C(=O)O)cc(=O)c34)cccc2o1
Category: label 0

Compound: CCCc1cc(=O)[nH]c(=S)[nH]1
Category: label 0

Compound: O=C(O)c1cccnc1Nc1cccc(C(F)(F)F)c1
Category: label 0

Compound: CN(C)C(=O)COC(=O)Cc1ccc(OC(=O)c2ccc(N=C(N)N)cc2)cc1
Category: label 0

Compound: CC(S)C(=O)NCC(=O)O (stereo not given)
Category: label 0

Compound: CC(C)[C@H](N)C(=O)OCCOCn1cnc2c(=O)[nH]c(N)nc21
Category: label 0

Compound: CCOC(=O)c1c(C)n(C)c2ccc(O)cc12
Category: label 0

Compound: O=C(CS(=O)Cc1ccco1)NCC=CCOc1cc(CN2CCCCC2)ccn1 (stereo not given)
Category: label 0

Compound: COc1ccc2cc([C@H](C)C(=O)O)ccc2c1
Category: label 0

Compound: CCCCCCCCOc1ccccc1C(=O)Nc1ccc(C(=O)OCC[N+](C)(CC)CC)cc1
Category: label 1

Compound: Oc1ccc(OCc2ccccc2)cc1
Category: label 0

Compound: CCC1=C(C)CN(C(=O)NCCc2ccc(S(=O)(=O)NC(=O)NC3CCC(C)CC3)cc2)C1=O (stereo not given)
Category: label 0

* * *

Target: Cytochrome P450 3A4 (Homo sapiens) (UniProt P08684)
Sequence (P08684 whole entry, looked up): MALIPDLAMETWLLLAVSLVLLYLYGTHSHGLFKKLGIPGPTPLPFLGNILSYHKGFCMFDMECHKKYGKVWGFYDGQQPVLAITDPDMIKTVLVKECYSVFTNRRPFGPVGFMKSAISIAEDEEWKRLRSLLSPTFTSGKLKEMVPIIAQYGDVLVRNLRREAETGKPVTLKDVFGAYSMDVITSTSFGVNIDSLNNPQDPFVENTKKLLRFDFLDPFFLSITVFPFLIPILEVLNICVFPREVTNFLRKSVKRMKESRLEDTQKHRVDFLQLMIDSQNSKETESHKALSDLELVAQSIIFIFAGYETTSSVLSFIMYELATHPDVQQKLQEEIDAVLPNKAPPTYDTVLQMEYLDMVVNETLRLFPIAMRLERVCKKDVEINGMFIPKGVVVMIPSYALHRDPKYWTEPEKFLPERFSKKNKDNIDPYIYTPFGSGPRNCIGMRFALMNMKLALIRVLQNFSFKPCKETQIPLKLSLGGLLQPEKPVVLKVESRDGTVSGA
Assay: qHTS Assay for Inhibitors and Substrates of Cytochrome P450 3A4 (AID 884); note: nearly all actives have a fitted effect of over 50% in size
Details: recombinant CYP3A4, Luciferin-PPXE luminescence; series mostly up to 57.1 µM
Inconclusive results are not listed. Calls of active or inactive are those of the source. The call rests on the fitted dose curve; in most records, active means well fitted inhibition curve with a large enough effect; inconclusive means small, poorly fitted or top-dose-only effect; inactive means no such curve, though single readings can be large or run the other way. Peptide text beside a SMILES is read from it.
Classes used: y for active, n for inactive

Molecule: COC(=O)[C@H](Cc1ccccc1)NC(=O)[C@@H](N)CC(=O)O (H-Asp-Phe-OMe)
Category: n
--
Molecule: COc1ccccc1N1CCN(CCN(C(=O)C2CCCCC2)c2ccccn2)CC1
Category: y
--
Molecule: O=C1c2ccccc2-c2n[nH]c3cccc1c23
Category: y
--
Molecule: S=c1nc[nH]c2nc[nH]c12
Category: n
--
Molecule: Cc1cc2cc3c(C)cc(=O)oc3c(C)c2o1
Category: y
--
Molecule: Cc1cc2c(s1)Nc1ccccc1N=C2N1CCN(C)CC1
Category: n
--
Molecule: CCCCC(CC)COC(=O)C(C#N)=C(c1ccccc1)c1ccccc1 (configuration not stated)
Category: n
--
Molecule: NC(=NCc1ccccc1)NC(=O)c1nc(Cl)c(N)nc1N
Category: n
--
Molecule: O=C(O)c1cc(=O)c2c(OCC(O)COc3cccc4oc(C(=O)O)cc(=O)c34)cccc2o1
Category: n
--
Molecule: C[C@H](Cc1ccc(O)c(O)c1)[C@@H](C)Cc1ccc(O)c(O)c1
Category: n
--
Molecule: CCCOc1ccc2nc(NC(=O)OC)[nH]c2c1
Category: n
--
Molecule: Cc1ccc(S(=O)(=O)NC(=O)NN2CC3CCCC3C2)cc1 (configuration not stated)
Category: n
